Below, each of the compounds is paired with its reported pIC50 value.
# tested.target: Caspase-3 (Homo sapiens)
# Sequence (P42574 29-175 limits assumed): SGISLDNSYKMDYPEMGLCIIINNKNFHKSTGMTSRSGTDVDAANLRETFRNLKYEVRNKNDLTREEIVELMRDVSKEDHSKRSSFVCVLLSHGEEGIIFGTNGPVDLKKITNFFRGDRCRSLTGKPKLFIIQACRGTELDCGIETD
# Sequence (P42574 176-277 limits assumed): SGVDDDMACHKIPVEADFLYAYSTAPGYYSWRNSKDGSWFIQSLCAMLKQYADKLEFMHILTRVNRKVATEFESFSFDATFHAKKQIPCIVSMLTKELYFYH
# assay.explanation: Inhibition of recombinant human caspase-3 using Ac-LDEVD-AMC as substrate assessed as accumulation of 7-AMC incubated for 10 mins followed by substrate addition measured for 10 mins by fluorimetric analysis
Here pIC50 is given on a logarithmic scale as minus log10 of the concentration in mol/L.

Prompt: Param item = `O=c1c2ccccc2sn1-c1ccccc1` ; retrieve measured pIC50.
Completion: 6.27

Prompt: Ok, now `Cc1ccc(-n2sc3ccccc3c2=O)cc1`
Completion: 6.33

Prompt: Ok, now `O=C(NCc1ccccc1)n1sc2ccccc2c1=O`
Completion: 7.07

Prompt: Ok, now `Cn1sc2ccccc2c1=O`
Completion: 4.37

Measured values drawn from ChEMBL document CHEMBL2390930 for this set.
